Attribute: EC50
biological target: IDO1 (Homo sapiens, UniProt P14902); construct: HeLa cells were treated with a test compound in the presence of IFNγ, which induces IDO1 expression; host or cells: H1-HeLa cells, IDO1 induced with IFNγ; assay: Cell-based (HeLa) assay for measurement of IDO1 inhibition (kynurenine levels in supernatant after IFNγ induction); settings: HeLa cells, IFNγ-induced IDO1, kynurenine in supernatant, 48 hour incubation; geometric mean of a minimum of four determinations
Sequence (P14902 whole entry): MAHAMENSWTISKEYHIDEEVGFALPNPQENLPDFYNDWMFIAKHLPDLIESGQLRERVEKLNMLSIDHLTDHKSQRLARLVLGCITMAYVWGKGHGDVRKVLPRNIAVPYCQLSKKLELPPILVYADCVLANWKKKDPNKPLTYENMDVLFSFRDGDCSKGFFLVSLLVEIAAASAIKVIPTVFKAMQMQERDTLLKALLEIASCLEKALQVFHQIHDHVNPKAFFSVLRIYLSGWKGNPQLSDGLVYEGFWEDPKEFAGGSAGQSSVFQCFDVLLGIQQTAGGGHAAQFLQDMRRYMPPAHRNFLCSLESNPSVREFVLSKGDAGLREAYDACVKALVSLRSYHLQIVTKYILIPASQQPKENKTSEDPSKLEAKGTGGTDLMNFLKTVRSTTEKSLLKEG
Report only the number, with the unit nM understood.

# EC50 of CN(C)CCCNc1nc2c(F)c(F)cc(/C(=N/O)Nc3ccc(F)c(Br)c3)c2[nH]1 = 692

Sure, the documented EC50 for CN(CCc1nc2nccc(/C(=N/O)Nc3ccc(F)c(Cl)c3)c2[nH]1)CCC1CCOCC1 is 581

compound Nc1nc2cc(F)cc(/C(=N/O)Nc3ccc(F)c(Cl)c3)c2[nH]1 , EC50 observed: 1080

Short answer for CN(C)CCCCNc1nc2c(F)c(F)cc(/C(=N/O)Nc3ccc(F)c(Cl)c3)c2[nH]1 : EC50 was 2930

Entry under test: CN(C)C1CCCC1Nc1nc2c(F)c(F)cc(/C(=N/O)Nc3ccc(F)c(Cl)c3)c2[nH]1 (stereo not shown) . Its EC50 was 472

Data point: O/N=C(\Nc1ccc(F)c(Cl)c1)c1cc(F)c(F)c2nc(NC3CNCCOC3)[nH]c12 (stereo not shown) ; EC50 = 1520

As a next step, examine the compound that follows.
Entry O/N=C(\Nc1ccc(F)c(Cl)c1)c1cc(F)c(F)c2nc(N[C@H]3CCCCNC3)[nH]c12 — recorded EC50 = 1430

###

Below, each of the compounds is paired with its reported EC50 value.
target: IDO1 (Homo sapiens); construct: HeLa cells were treated with a test compound in the presence of IFNγ, which induces IDO1 expression; host or cells: H1-HeLa cells, IDO1 induced with IFNγ; assay: Cell-based (HeLa) assay for measurement of IDO1 inhibition (kynurenine levels in supernatant after IFNγ induction); settings: HeLa cells, IFNγ-induced IDO1, kynurenine in supernatant after 48 hour incubation; geometric mean of a minimum of four determinations
Write it as a number; the unit nM goes unstated.

For reference, reported EC50 for CN(CCNc1nc2nccc(/C(=N/O)Nc3ccc(F)c(Cl)c3)c2[nH]1)C1CCOCC1 stands at 1210

Short answer for Nc1nc2c(F)c(F)cc(/C(=N/O)Nc3cccc(Br)c3)c2[nH]1 : EC50 was 570

Looking up CC#Cc1cc(N/C(=N\O)c2ccnc3nc[nH]c23)ccc1F , I found its EC50 recorded as 445

Below: the item to evaluate.
Record summary for O/N=C(\Nc1cc(Cl)c(F)cc1F)c1ccnc2nc[nH]c12 : reported EC50 = 385

###

target: IDO1 (Homo sapiens); construct: HeLa cells were treated with a test compound in the presence of IFNγ, which induces IDO1 expression; host or cells: H1-HeLa cells, IDO1 induced with IFNγ; assay: Cell-based (HeLa) assay for measurement of IDO1 inhibition (kynurenine levels in supernatant after IFNγ induction); details: HeLa cells, IFNγ-induced IDO1, kynurenine in supernatant, 48 hour incubation; geometric mean of a minimum of four determinations
Reported EC50 values follow for various molecules

Worked cases, answers included:
For O=S(=O)(NCCNc1nc2c(F)c(F)cc(/C(=N/O)Nc3ccc(F)c(Cl)c3)c2[nH]1)c1ccccc1 [Example 339] on IDO1 (Homo sapiens), measured EC50 was > 10 µM

Sample CS(=O)(=O)NCCNc1nc2c(F)c(F)cc(/C(=N/O)Nc3ccc(F)c(Cl)c3)c2[nH]1 [Example 335] , system: IDO1 (Homo sapiens). Its EC50 is > 10 µM

Now look at this entry.
The reported EC50 value, IDO1 (Homo sapiens), for CCNC(=O)NCCNc1nc2c(F)c(F)cc(/C(=N/O)Nc3ccc(F)c(Cl)c3)c2[nH]1 [Example 341] reads > 10 µM
